Assay: Apparent volume of distribution in C57BL/6 mouse at 1 mg/kg, iv measured upto 24 hrs by LC-MS/MS analysis
Assay type: ADME, organism-based
Details: in vivo, read-out: Vz
property.measured: Vd (L/kg)

1 = COc1ccc(C(=O)N2CCN(C(=O)/C=C/c3ccc(Br)cc3)CC2)cc1
2 = Nc1nc2ccc(C(=O)N3CCN(C(=O)/C=C/c4ccc(Br)cc4)CC3)cc2s1
Ask: Would you kindly point out which of 1 and 2 has the smaller Vd figure? Refer to your chosen item by its label in the answer.
Reply: 2

====

Assay: Half life in C57BL/6 mouse at 3 mg/kg, po measured upto 24 hrs by LC-MS/MS analysis
Assay type: ADME, organism-based
Conditions: in vivo
property.measured: half-life (min)

COc1ccc(C(=O)N2CCN(C(=O)/C=C/c3ccc(Br)cc3)CC2)cc1 131
Nc1nc2ccc(C(=O)N3CCN(C(=O)/C=C/c4ccc(Br)cc4)CC3)cc2s1 134

====

Molecular target: UniProt P32249
Sequence (P32249 whole entry): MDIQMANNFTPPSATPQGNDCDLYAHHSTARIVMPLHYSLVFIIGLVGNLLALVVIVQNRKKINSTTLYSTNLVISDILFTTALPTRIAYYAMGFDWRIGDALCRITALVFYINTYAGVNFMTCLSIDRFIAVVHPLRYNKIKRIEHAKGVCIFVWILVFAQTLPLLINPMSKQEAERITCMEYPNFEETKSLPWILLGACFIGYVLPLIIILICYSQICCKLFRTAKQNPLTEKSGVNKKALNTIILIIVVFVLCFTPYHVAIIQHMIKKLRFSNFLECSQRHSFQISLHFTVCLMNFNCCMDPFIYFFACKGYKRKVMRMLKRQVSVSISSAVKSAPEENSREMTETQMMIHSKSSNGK
Assay: Agonist activity at GPR183 (unknown origin) transfected in HEK293 cells assessed as reduction in forskolin induced cAMP generation incubated for 30 mins by Glosensor cAMP assay
Format: functional, cell-based
property.measured: pEC50
Lab note: report pEC50 as minus log10 of the concentration in molar units, number only.

Ask: Which pEC50 reading was recorded for the compound C[C@H](CCCC(C)(C)O)[C@H]1CCC2C3C(CC[C@@]21C)[C@@]1(C)CC[C@H](O)CC1=C[C@H]3O (stereo partly specified) ?
Reply: 9.82
